System: A549, non-small cell lung carcinoma
assay method text: IC50 determination for adherent cells using SRB, A549
Assay type: cell-based, human
test context: read-out: IC50 A549, 48-hour exposure
pIC50: −log10 of the molar value.
outcome measure: pIC50

CO[C@@]12C[C@@H]3[C@@H](NC(=O)c4ccc(Br)n43)[C@@H]1NC(=O)N2C [(−)-5, (−)-agelastatin E]; < 5.00
CN1C(=O)N[C@H]2[C@@H]3NC(=O)c4ccc(Br)n4[C@@H]3C[C@]21O [(−)-1, (−)-agelastatin A]; 5.98
COC1NC(=O)c2ccc(Br)n2C1Cc1c[nH]c(=O)[nH]1 (single isomer, unassigned; (+)) [(+)-53, (+)-O-methyl-pre-agelastatin D]; < 5.00
